target: KIT (human) (UniProt P10721); experiment: radiometric filter-binding kinase assay, Kinase HotSpot; details: compound 0.5 µM; ATP 10 µM
Sequence (P10721 whole entry, looked up): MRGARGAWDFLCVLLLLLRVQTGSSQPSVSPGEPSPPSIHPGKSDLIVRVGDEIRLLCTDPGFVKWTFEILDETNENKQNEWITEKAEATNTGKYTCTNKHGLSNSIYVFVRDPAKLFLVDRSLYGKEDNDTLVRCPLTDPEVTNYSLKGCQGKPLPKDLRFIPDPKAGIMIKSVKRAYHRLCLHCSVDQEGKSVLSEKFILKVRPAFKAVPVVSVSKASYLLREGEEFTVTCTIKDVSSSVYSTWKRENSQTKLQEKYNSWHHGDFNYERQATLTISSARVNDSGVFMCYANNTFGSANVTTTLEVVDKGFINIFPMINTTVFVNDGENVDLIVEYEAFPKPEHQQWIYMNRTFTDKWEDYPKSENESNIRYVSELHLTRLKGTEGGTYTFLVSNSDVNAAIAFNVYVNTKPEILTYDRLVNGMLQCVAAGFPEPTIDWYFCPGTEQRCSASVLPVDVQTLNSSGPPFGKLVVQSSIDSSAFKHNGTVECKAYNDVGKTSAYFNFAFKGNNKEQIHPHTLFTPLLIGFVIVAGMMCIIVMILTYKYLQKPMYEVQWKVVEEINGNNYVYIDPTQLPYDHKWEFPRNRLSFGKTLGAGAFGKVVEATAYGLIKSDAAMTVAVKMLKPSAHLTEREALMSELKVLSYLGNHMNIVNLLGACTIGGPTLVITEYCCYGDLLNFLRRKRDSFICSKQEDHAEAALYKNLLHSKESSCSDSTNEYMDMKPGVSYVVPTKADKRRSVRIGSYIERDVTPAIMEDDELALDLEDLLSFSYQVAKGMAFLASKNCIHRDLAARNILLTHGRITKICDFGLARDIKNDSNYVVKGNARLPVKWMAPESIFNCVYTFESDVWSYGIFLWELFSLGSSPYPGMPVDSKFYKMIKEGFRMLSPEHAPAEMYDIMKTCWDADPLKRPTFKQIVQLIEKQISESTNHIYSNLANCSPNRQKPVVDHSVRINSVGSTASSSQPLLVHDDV
# if value of residual activity reaches 90%, tag T; if it stays below, tag F

Check if residual activity >= 90% (inclusive). Item: O=C(Nc1ccc(Cl)cc1)c1ccccc1NCc1ccncc1
F

Could you tell me if the measured residual activity of O=C(NC(NC(=S)Nc1ccc(F)c([N+](=O)[O-])c1)C(Cl)(Cl)Cl)C(c1ccccc1)c1ccccc1 (stereo not drawn) reaches 90% or more?
T

Is residual activity for O=C1Cc2c([nH]c3ccc([N+](=O)[O-])cc23)-c2ccccc2N1 at or above 90%?
F

Answer whether residual activity of CC(C)n1cnc2c(Nc3cccc(Cl)c3)nc(NCCO)nc21 is greater than or equal to 90%.
F

Determine whether measured residual activity meets or exceeds 90% for O=C1Nc2cc(Br)ccc2/C1=C1/Nc2ccccc2/C1=N\O
F

For this molecule, is measured residual activity 90% or higher? CCN1/C(=C/C(C)=O)Sc2ccc(OC)cc21
F

Given the entry Cc1ccc(NC(=O)c2ccc(CN3CCN(C)CC3)cc2)cc1Nc1nc(-c2cccnc2)cs1 , answer whether its residual activity meets or surpasses 90%.
F

# bool: residual activity of O=c1cc(N2CCNCC2)oc2c(-c3ccccc3)cccc12 >= 90%
T

Decide: residual activity of CCCNC(=O)Nc1ccc(Oc2ncnc3cc(OC)c(OC)cc23)cc1Cl >= 90%?
F

Given Nc1n[nH]c2nnc(-c3c(-c4ccccc4)nn4ccccc34)cc12 , state whether its residual activity is at least 90%.
T

Quick check: does Nc1nc(Nc2ccc(S(N)(=O)=O)cc2)nn1C(=O)c1c(F)cccc1F have residual activity greater than or equal to 90%?
F

Determine whether measured residual activity meets or exceeds 90% for COc1ccc(-c2cnc3c(-c4ccsc4)cnn3c2)cc1
F

Identify whether the reported residual activity of the following molecule is 90% or greater: Cc1cc2ncc(-c3ccccc3)nc2cc1C
F

Would you say NC(=O)c1ccc(N(C(N)=O)c2c(F)cccc2F)nc1-c1ccc(F)cc1F shows residual activity at minimum 90%?
T

* * *

target: MAPKAPK2 (human); experiment: radiometric filter-binding kinase assay, Kinase HotSpot; details: compound 0.5 µM; ATP 10 µM
Provide the reported residual activity of each item.
Express it in %; write the number only.

What value of residual activity has been recorded for this entry: Nc1nc(Nc2ccc(S(N)(=O)=O)cc2)nn1C(=O)c1c(F)cccc1F
95.8

Recorded residual activity for COc1cc2nccc(Oc3ccc(NC(=S)NC(=O)c4ccccc4C)cc3)c2cc1OC , please?
98

What does the data say about its residual activity? Entry: O=c1cc(-c2cccc3c2Sc2ccccc2S3)oc(N2CCOCC2)c1
94.2

# input molecule: COc1cc2ncnc(Nc3ccc(F)c(Cl)c3)c2cc1OCCCN1CCOCC1 ; wanted: its residual activity
97.5

Recorded residual activity for NC(=O)c1ccc(N(C(N)=O)c2c(F)cccc2F)nc1-c1ccc(F)cc1F , please?
98.9

Could you share which residual activity value was measured for O=C(Nc1ccc(Cl)cc1)c1ccccc1NCc1ccncc1 ?
97.6

Would you mind telling me what residual activity value was observed for CC(C)(C)c1nc2c3ccc(F)cc3c3c(=O)[nH]ccc3c2[nH]1 ?
99.6

Look up residual activity: COc1ccc(-c2cnc3c(-c4ccsc4)cnn3c2)cc1
95.8

# lookup: residual activity of CCCNC(=O)Nc1ccc(Oc2ncnc3cc(OC)c(OC)cc23)cc1Cl
101

// residual activity lookup, key: Clc1ccc(Nc2nnc(Cc3ccncc3)c3ccccc23)cc1
98.8

Query: residual activity; subject: O=c1cc(N2CCNCC2)oc2c(-c3ccccc3)cccc12
103

Entry O=C1Cc2c([nH]c3ccc([N+](=O)[O-])cc23)-c2ccccc2N1 : reported residual activity = ?
77.4

Which residual activity is listed for O=C(NC(NC(=S)Nc1ccc(F)c([N+](=O)[O-])c1)C(Cl)(Cl)Cl)C(c1ccccc1)c1ccccc1 (stereo not given) ?
96.3

Endpoint output: residual activity of CC(C)n1cnc2c(Nc3cccc(Cl)c3)nc(NCCO)nc21 . Value?
98.9

Returns the measured residual activity for the input molecule. Input: CCN1/C(=C/C(C)=O)Sc2ccc(OC)cc21
94.6
